Attribution: paper PMC4910395

# target_of_assay: NMDA receptor (NR), channel binding site labeled with [^3H]MK-801 (Rattus norvegicus, UniProt P35439+Q00959+Q00960)
# Sequence (Q00959 23-1464, other chains not shown): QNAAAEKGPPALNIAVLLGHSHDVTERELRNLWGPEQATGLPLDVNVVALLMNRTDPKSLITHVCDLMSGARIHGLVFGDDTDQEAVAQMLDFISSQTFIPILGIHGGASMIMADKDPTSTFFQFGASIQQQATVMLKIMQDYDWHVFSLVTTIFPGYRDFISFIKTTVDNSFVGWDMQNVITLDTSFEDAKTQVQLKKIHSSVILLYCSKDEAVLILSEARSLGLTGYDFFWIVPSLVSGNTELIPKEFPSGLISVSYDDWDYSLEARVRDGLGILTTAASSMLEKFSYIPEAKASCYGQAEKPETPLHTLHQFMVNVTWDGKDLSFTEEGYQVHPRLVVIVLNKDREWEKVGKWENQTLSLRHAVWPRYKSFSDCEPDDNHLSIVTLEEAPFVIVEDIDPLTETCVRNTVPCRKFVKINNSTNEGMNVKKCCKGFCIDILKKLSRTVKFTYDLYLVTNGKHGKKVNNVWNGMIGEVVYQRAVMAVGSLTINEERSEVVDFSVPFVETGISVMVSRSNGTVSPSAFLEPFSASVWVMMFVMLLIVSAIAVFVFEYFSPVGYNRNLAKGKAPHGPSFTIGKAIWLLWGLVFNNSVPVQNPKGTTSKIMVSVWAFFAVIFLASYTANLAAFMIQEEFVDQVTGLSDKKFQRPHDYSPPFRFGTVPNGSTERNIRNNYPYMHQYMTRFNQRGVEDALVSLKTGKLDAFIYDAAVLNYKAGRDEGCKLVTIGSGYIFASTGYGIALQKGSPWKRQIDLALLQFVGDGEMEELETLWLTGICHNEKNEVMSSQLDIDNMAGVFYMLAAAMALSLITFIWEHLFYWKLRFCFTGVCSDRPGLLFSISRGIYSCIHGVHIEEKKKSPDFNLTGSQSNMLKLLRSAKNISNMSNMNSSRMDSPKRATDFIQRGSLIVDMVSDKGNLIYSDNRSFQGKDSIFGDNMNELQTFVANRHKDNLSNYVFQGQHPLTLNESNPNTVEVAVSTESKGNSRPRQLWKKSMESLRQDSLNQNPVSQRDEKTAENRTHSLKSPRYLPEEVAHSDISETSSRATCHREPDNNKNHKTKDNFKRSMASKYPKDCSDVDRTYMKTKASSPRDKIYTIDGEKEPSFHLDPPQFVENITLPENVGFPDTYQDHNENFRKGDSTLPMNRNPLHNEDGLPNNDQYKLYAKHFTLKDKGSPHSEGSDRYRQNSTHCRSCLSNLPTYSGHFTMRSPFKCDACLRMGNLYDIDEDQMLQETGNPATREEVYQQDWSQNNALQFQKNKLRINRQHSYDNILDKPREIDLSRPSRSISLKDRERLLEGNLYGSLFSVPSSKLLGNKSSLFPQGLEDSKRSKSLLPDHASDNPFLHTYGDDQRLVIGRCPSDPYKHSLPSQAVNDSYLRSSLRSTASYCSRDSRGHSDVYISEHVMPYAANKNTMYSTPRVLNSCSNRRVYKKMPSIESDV
# Sequence (Q00960 27-1482, other chains not shown): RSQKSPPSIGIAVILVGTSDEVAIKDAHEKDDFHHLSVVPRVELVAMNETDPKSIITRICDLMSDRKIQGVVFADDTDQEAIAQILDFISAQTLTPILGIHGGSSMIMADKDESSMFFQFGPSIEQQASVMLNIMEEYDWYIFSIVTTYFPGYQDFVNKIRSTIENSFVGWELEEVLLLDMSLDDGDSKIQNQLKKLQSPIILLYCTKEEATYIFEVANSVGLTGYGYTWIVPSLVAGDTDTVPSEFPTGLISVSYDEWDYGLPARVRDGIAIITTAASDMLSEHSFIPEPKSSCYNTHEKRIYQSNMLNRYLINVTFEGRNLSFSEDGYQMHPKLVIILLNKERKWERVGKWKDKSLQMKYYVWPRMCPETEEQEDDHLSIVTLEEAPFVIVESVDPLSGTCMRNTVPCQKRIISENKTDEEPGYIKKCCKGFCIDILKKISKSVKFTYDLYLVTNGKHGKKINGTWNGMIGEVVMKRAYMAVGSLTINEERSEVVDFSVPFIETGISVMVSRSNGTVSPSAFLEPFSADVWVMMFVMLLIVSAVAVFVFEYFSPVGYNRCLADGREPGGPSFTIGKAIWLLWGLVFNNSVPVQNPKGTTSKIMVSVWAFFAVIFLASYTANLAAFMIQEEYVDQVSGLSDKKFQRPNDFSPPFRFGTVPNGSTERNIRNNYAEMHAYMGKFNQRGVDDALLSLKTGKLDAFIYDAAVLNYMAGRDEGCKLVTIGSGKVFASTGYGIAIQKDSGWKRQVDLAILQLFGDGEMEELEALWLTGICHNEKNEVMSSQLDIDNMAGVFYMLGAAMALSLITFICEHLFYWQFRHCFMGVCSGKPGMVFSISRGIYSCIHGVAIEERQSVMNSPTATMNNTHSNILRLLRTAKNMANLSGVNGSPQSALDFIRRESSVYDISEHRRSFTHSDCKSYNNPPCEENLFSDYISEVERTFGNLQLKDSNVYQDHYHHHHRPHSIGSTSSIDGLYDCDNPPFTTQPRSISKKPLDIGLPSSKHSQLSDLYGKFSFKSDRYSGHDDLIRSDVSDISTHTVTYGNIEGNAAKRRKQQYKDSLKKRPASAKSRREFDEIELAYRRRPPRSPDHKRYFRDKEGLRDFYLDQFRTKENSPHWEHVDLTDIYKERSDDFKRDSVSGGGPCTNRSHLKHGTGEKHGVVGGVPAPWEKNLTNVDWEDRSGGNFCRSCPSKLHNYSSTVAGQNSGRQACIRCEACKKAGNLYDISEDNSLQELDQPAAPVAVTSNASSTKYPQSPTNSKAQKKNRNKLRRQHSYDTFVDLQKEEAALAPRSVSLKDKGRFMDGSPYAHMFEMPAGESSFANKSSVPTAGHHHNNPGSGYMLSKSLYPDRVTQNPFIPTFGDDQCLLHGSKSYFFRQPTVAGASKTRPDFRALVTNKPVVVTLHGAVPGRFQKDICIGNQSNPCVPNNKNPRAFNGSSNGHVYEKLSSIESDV
# assay_method_text: Inhibition of [^3H]MK-801 binding to rat cortical membranes
# test_conditions: mean ratio; spermine sensitivity
List of [^3H]MK-801 Ratio IC50 (30 µM spm)/IC50 (no spm) values.

Request the reported [^3H]MK-801 Ratio IC50 (30 µM spm)/IC50 (no spm) associated with CCN(CCN(CC)c1ccc(C(=N)N)cc1)c1ccc(C(=N)N)cc1
11.8 (2)

Request the reported [^3H]MK-801 Ratio IC50 (30 µM spm)/IC50 (no spm) associated with N=C(N)c1ccc(NCCCCNc2ccc(C(=N)N)cc2)cc1
17.2 (2)

Request the reported [^3H]MK-801 Ratio IC50 (30 µM spm)/IC50 (no spm) associated with N=C(N)c1ccc(OCCCCCOc2ccc(C(=N)N)cc2)cc1 [compound 1, Pentamidine, reference compound]
9.1 ± 2.5 (7)

Request the reported [^3H]MK-801 Ratio IC50 (30 µM spm)/IC50 (no spm) associated with CN(CCN(C)c1ccc(C(=N)N)cc1)c1ccc(C(=N)N)cc1
20.9 (2)

----------
List of [^3H]MK-801 Ratio IC50 (30 µM spm)/IC50 (no spm) values.
# target_of_assay: NMDA receptor (NR), channel binding site labeled with [^3H]MK-801 (Rattus norvegicus, UniProt P35439+Q00959+Q00960)
# assay_method_text: Inhibition of [^3H]MK-801 binding to rat cortical membranes
# test_conditions: mean ratio; spermine sensitivity

In [3]: df
Out[3]:
                                   molecule  value_observed
0  N=C(N)NCCCCNC(=N)N [Arcaine, reference compound]        33.6 (2)
1  N=C(N)c1ccc(NC(=O)CCCCC(=O)Nc2ccc(C(=N)N)cc2)cc1 [compound 46]        3.46 (2)

Request the reported [^3H]MK-801 Ratio IC50 (30 µM spm)/IC50 (no spm) associated with CC(C)(C)/N=C(\N)c1ccc(N2CCCN(c3ccc(/C(N)=N/C(C)(C)C)cc3)CC2)cc1 [compound 27]
16.8 (2)

Request the reported [^3H]MK-801 Ratio IC50 (30 µM spm)/IC50 (no spm) associated with N=C(N)c1ccc(-c2ccc(-c3ccc(-c4ccc(C(=N)N)o4)s3)s2)o1 [compound 75]
4.26 (2)

Request the reported [^3H]MK-801 Ratio IC50 (30 µM spm)/IC50 (no spm) associated with N=C(N)c1ccc(NC(=O)c2cccc(C(=O)Nc3ccc(C(=N)N)cc3)n2)cc1 [compound 65]
1.22 (2)

Request the reported [^3H]MK-801 Ratio IC50 (30 µM spm)/IC50 (no spm) associated with N=C(N)c1ccc(NCCCCCCNc2ccc(C(=N)N)cc2)cc1 [compound 42]
5.26 (2)

Request the reported [^3H]MK-801 Ratio IC50 (30 µM spm)/IC50 (no spm) associated with N=C(N)c1ccc(-c2ccc(-c3ccc(C(=N)N)s3)s2)s1 [compound 71]
1.50 (2)

----------
# target_of_assay: NMDA receptor (NR), [^3H]ifenprodil binding site (Rattus norvegicus, UniProt P35439+Q00960)
# Sequence (Q00960 27-1482, other chains not shown): as above
# assay_method_text: biochemical
endpoint_label: IC50 (µM)

# annotated cases, reported IC50 shown
>>> print(df.to_string())
                                   molecule  endpoint_label  value_observed
0  N=C(N)c1ccc(OC(=O)c2ccc(C(=O)Oc3ccc(C(=N)N)cc3)cc2)cc1            IC50            38.6
1  N=C(N)c1ccc(OCCCCCOc2ccc(C(=N)N)cc2)cc1 [compound 1, Pentamidine, reference compound]            IC50            32.5

a = N=C(N)c1ccc(NC(=O)CCCC(=O)Nc2ccc(C(=N)N)cc2)cc1
b = N=C(N)c1ccc(OCc2ccc(COc3ccc(C(=N)N)cc3)cc2)cc1
c = N=C(N)c1ccc(OCc2ccccc2COc2ccc(C(=N)N)cc2)cc1
List items by IC50 in falling order. List the labels in the requested order.
a, b, c

----------
# target_of_assay: NMDA receptor (NR), channel binding site labeled with [^3H]MK-801 (Rattus norvegicus, UniProt P35439+Q00959+Q00960)
# assay_method_text: Inhibition of [^3H]MK-801 binding to rat cortical membranes
# test_conditions: mean ratio; spermine sensitivity
List of [^3H]MK-801 Ratio IC50 (30 µM spm)/IC50 (no spm) values.

# annotated cases, reported [^3H]MK-801 Ratio IC50 (30 µM spm)/IC50 (no spm) shown
>>> df
                                   compound  value_observed
0  N=C(NC1CC1)c1ccc(N2CCN(c3ccc(C(=N)NC4CC4)cc3)CC2)cc1 [compound 18]        21.8 (2)
1  N=C(N)c1ccc(C(=O)NCCCCCCNC(=O)c2ccc(C(=N)N)cc2)cc1 [compound 55]        4.59 (2)
2  N=C(N)c1ccc(NC(=O)c2ccc(C(=O)Nc3ccc(C(=N)N)cc3)cc2)cc1 [compound 62]        0.96 (2)
3  N=C(N)c1ccc(-c2ccc(-c3ccc(C(=N)N)cc3)c(F)c2)cc1 [compound 73]        4.63 (2)
4  N=C(NCCCO)c1ccc(N2CCCN(c3ccc(/C(N)=N/CCCO)cc3)CC2)cc1 [compound 31]        9.72 (2)
5  CN(CCNc1ccc(C(=N)N)cc1)c1ccc(C(=N)N)cc1 [compound 35]        30.2 (2)
6  CC/N=C(\N)c1ccc(-c2ccc(-c3ccc(/C(N)=N/CC)cc3)o2)cc1 [compound 70]        2.56 (2)
7  N=C(N)c1ccc(NCCCCCCCCNc2ccc(C(=N)N)cc2)cc1 [compound 44]        4.37 (2)

Request the reported [^3H]MK-801 Ratio IC50 (30 µM spm)/IC50 (no spm) associated with CCCNC(=N)c1ccc(N2CCN(c3ccc(C(=N)NCCC)cc3)CC2)cc1 [compound 19]
21.8 (2)

Request the reported [^3H]MK-801 Ratio IC50 (30 µM spm)/IC50 (no spm) associated with N=C(N)c1ccc(N2CCN(c3ccc(C(=N)N)cc3)CC2)cc1 [compound 16]
26.2 (2)

Request the reported [^3H]MK-801 Ratio IC50 (30 µM spm)/IC50 (no spm) associated with N=C(N)c1ccc(-c2ccc(-c3nc4ccc(C(=N)N)cc4[nH]3)s2)cc1 [compound 74]
4.14 (2)

Request the reported [^3H]MK-801 Ratio IC50 (30 µM spm)/IC50 (no spm) associated with N=C(N)c1ccc(OC(=O)c2ccc(C(=O)Oc3ccc(C(=N)N)cc3)cc2)cc1 [compound 60]
3.98 (2)

----------
List of [^3H]MK-801 Ratio IC50 (30 µM spm)/IC50 (no spm) values.
# target_of_assay: NMDA receptor (NR), channel binding site labeled with [^3H]MK-801 (Rattus norvegicus, UniProt P35439+Q00959+Q00960)
# assay_method_text: Inhibition of [^3H]MK-801 binding to rat cortical membranes
# test_conditions: mean ratio; spermine sensitivity

# annotated cases, reported [^3H]MK-801 Ratio IC50 (30 µM spm)/IC50 (no spm) shown
In [3]: df
Out[3]:
                               smiles_entry  value_observed
0  c1cc(N2CCCN(c3ccc(C4=NCCN4)cc3)CC2)ccc1C1=NCCN1        30.1 (2)
1  N=C(N)c1ccc(NC(=O)c2cccc(C(=O)Nc3ccc(C(=N)N)cc3)c2)cc1        0.97 (2)
2     N=C(N)c1ccc(NCCCNc2ccc(C(=N)N)cc2)cc1        17.0 (2)

Switching to the query record.
Request the reported [^3H]MK-801 Ratio IC50 (30 µM spm)/IC50 (no spm) associated with N=C(N)c1ccc(C(=O)Nc2cccc(NC(=O)c3ccc(C(=N)N)cc3)n2)cc1
1.85 (2)
